# target: T1, Monomeric hAng-2FD (human, UniProt O15123 282-496)
# T1 construct: also called fibrinogen-like domain of human Ang2; Human Ang-2FD
# T1 sequence: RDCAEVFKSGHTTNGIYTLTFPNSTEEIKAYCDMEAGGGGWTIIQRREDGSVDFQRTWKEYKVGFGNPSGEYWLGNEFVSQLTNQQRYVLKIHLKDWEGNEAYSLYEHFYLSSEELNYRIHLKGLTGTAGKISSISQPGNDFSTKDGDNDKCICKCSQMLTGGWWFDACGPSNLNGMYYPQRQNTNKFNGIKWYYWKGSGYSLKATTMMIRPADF
# test_protocol: SPR, captured Ab
Reported Kd values for the following binders.
I only need the number, in nM, no unit after it.

binder: H2M742N (antibody, V domains shown) VH: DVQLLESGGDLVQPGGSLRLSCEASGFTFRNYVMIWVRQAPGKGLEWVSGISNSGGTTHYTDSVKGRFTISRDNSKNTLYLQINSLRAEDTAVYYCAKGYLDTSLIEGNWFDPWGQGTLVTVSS VL: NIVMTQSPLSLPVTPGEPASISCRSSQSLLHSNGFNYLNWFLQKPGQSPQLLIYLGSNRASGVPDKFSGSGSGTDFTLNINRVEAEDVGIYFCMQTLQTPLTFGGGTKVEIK
result_units: nM
Kd: 4.81

// lookup Kd for H1H730N (antibody, V domains shown) VH: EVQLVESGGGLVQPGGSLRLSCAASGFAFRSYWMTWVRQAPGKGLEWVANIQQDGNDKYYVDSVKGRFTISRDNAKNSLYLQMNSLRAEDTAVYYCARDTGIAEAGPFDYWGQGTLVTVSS VL: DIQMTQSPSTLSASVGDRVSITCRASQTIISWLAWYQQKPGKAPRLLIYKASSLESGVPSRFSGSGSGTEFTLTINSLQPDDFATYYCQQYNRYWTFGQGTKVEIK
2.84
